test system: Caenorhabditis elegans; test: C. elegans L1 nematicidal dose response, 5 day visual viability score (3-fold dilutions); type: in vivo; set-up: key: Dead: only stiff L1s (no movement); Dead (L4): worms are dead, but at a later larval stage; majority of worms are L1 (based on size); majority of worms are L2 (based on size); majority of worms are L3 (based on size); majority of worms are L4 (based on size); AD: majority of worms are adult; #AD: 5 adult worms or less; B!: sterile (0-25 progeny); B: low broodsize (25-100 progeny); ˜B: moderate broodsize (100-250 progeny); <: reduced broodsize (250-500 progeny); OK: no effect (˜1000+ progeny); conditions: 7.8 μM, scored day 5
recorded.metric: 5 Day Visual Score V3

- O=C(Nc1ccc(Br)cc1)N1CCC(c2nc(-c3ccccc3)no2)CC1 [AKC 108]: L1
